# study.system: recombinant AtCKX2 (Arabidopsis thaliana)
# Sequence (Q9FUJ3 23-501): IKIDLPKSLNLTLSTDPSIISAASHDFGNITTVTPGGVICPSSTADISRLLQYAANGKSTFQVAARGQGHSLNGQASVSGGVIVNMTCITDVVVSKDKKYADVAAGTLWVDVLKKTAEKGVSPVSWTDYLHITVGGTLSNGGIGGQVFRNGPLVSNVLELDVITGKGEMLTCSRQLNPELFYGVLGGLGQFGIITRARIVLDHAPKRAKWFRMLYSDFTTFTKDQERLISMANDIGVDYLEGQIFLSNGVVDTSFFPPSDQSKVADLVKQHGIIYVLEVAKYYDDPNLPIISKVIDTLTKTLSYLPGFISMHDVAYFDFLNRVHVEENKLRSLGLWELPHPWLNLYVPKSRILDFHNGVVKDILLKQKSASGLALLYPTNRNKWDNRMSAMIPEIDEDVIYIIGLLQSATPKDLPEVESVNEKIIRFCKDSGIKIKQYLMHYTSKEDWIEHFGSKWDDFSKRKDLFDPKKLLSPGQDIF
# procedure.details: Inhibition of cytokinin oxidase/dehydrogenase activity (PMS/MTT microtitre plate assay)
# Format: biochemical
metric.name: pIC50
Numbers only, as −log10 of the molar value.

Query string: Please report pIC50 for the following compound: O=C(Nc1ccccc1)Nc1cnns1 [thidiazuron, reference compound]
Result string: 4.52
